test system: NCI/ADR-RES ovarian; assay: NCI tumour cell line growth inhibition, 48 h
Listing: GI50 of selected compounds
MEASUREMENT_LABEL: GI50

INSERT INTO measurements (compound, measurement_label, reported) VALUES
  ('COc1cc2nc(N3CCCC3)nc(Nc3ccccc3)c2cc1OC', 'GI50', '1740 nM'),
  ('O=C(NC(=S)NNC(=S)NNc1ccccc1)c1ccccc1', 'GI50', '5260 nM'),
  ('O=C(Nc1ccccc1)NS(=O)(=O)c1ccc(N2N=C3c4ccccc4CC3C2c2ccccn2)cc1 (stereo not given)', 'GI50', '64400 nM'),
  ('Cc1ncc(C(=O)Nc2ccc(CN3CCN(C)CC3)c(C(F)(F)F)c2)cc1C#Cc1cnc(N)c2ncccc12', 'GI50', '1340 nM'),
  ('O=c1oc2ccc(Cl)cc2c(=O)n1-c1cc(C(F)(F)F)cc(C(F)(F)F)c1', 'GI50', '264 nM');

###

test system: UACC-62 melanoma; assay: NCI tumour cell line growth inhibition, 48 h; in the data active = GI50 below about 0.43 µM; inactive = the rest
Possible outcomes: active, inactive

INSERT INTO measurements (compound, class) VALUES
  ('O=Cc1ccc(Oc2c3ccccc3nc3occc23)cc1', 'inactive'),
  ('N#Cc1cccc(/C=C(/C(=O)c2ccccc2)c2ccccc2)c1', 'inactive'),
  ('C#C[C@@]1(O)[C@@H](CO)O[C@@H](n2ccc3c(N)ncnc32)[C@@H]1O', 'inactive'),
  ('CO/N=C(/COc1c(-c2ccccc2)oc2ccccc2c1=O)c1ccc(OC)cc1', 'inactive'),
  ('CCOC(=O)Cn1c(C)c(/C=N/NC(=O)c2cc3c(ccc4ccccc43)o2)c2ccccc21', 'active'),
  ('Nc1ccn(C2CC(O)C(CO)O2)c(=O)n1 (configuration not stated)', 'inactive'),
  ('Cc1cc2c3ccccc3ccc2[n+]2ccccc12', 'inactive');

###

Listing: GI50 of selected molecules
tested on: OVCAR-3 ovarian; assay: NCI tumour cell line growth inhibition, 48 h
MEASUREMENT_LABEL: GI50

INSERT INTO measurements (molecule, measurement_label, reported) VALUES
  ('CCC[CH2][Ge]([CH2]CCC)([CH2]CCC)[O]C(=O)C(OC)c1ccccc1 (stereo not given)', 'GI50', '11.1 µM'),
  ('CCCCCCCCCCCC[n+]1ccccc1', 'GI50', '0.835 µM'),
  ('O=C1c2ccccc2-c2n[nH]c3cccc1c23', 'GI50', '23.8 µM'),
  ('CCN(C(=O)CCl)C(C)(C)C(SSSC(c1ccc(Cl)cc1)C(C)(C)N(CC)C(=O)CCl)c1ccc(Cl)cc1 (stereo not given)', 'GI50', '8.46 µM'),
  ('CN(C)C(=O)c1cc2cnc(Nc3ccc(-c4csc5c(=O)cc(N6CCNCC6)oc45)cc3)nc2n1C1CCCC1', 'GI50', '0.871 µM'),
  ('O=C(Nc1ccccc1)NS(=O)(=O)c1ccc(N2N=C3c4ccccc4CC3C2c2ccccn2)cc1 (stereo not given)', 'GI50', '21.6 µM'),
  ('COc1ccc2c(c1)sc1nc(-c3ccccc3)c(-c3ccc(O)c(OC)c3)n12', 'GI50', '10.1 µM'),
  ('Cc1ccc(N=Nc2c(N)nn(-c3ccccc3)c2N)cc1', 'GI50', '0.705 µM'),
  ('COc1cc(Cn2ccc3c2-c2oncc2CC3)cc(OC)c1', 'GI50', '2.99 µM'),
  ('C=CC(=O)N1CCC([C@@H]2CCNc3c(C(N)=O)c(-c4ccc(Oc5ccccc5)cc4)nn32)CC1', 'GI50', '11 µM');

###

tested on: SF-268 CNS; experiment: NCI tumour cell line growth inhibition, 48 h
MEASUREMENT_LABEL: GI50

INSERT INTO results (chemical_string, assayed_target, reported) VALUES
  ('Nc1nc(N)c2c(ccc3nccc32)[nH]1', 'SF-268 CNS', '2110 nM'),
  ('COc1cc2c(c(OC)c1OC)-c1ccc(SC)c(=O)cc1[C@@H](NCc1cccc(C#N)c1)CC2', 'SF-268 CNS', '< 7.5 nM'),
  ('O=c1oc2ccc(Cl)cc2c(=O)n1-c1cc(C(F)(F)F)cc(C(F)(F)F)c1', 'SF-268 CNS', '262 nM'),
  ('CCCCCCCCCCCC[n+]1ccccc1', 'SF-268 CNS', '1580 nM');

###

test system: DMS 273 small cell lung; test: NCI tumour cell line growth inhibition, 48 h
MEASUREMENT_LABEL: TGI

INSERT INTO measurements (compound, reported) VALUES
  ('COc1c(NC(=O)CC(C)=O)[c]([Hg][O]C(C)=O)c(OC)c(Cl)[c]1[Hg][O]C(C)=O', '31.9 µM'),
  ('CCC1(C(=O)OC)CCc2c(OC)ccc(OC)c2C1=O (stereo not given)', '> 100 µM'),
  ('CCC[CH2][Ge]([CH2]CCC)([CH2]CCC)[O]C(=O)C(O)c1ccccc1 (stereo not given)', '11.9 µM'),
  ('Cc1ccc(C2(O)CC(c3ccc([N+](=O)[O-])o3)=NN2C(=O)COc2ccccc2Cl)cc1 (stereo not given)', '> 100 µM'),
  ('CCc1ccc(Nc2cc(=O)[nH]c(=S)n2C)cc1', '> 100 µM'),
  ('COc1ccc(/C=C2\SC(c3ccc(OC)cc3)N(NC(=O)Cc3ccccc3)C2=O)cc1 (stereo not given)', '> 100 µM'),
  ('O=C(/C=C/c1ccccc1O)c1cccnc1', '> 100 µM'),
  ('O=C(CC(=O)Nc1ccccc1O)Nc1ccccc1O', '> 100 µM'),
  ('C/C(=N\NC(=O)c1ccccc1O)c1cccc(/C(C)=N/NC(=O)c2ccccc2O)n1', '> 100 µM'),
  ('O=C(O)CCCCCO', '> 100 µM');

###

Listing: GI50 of selected molecules
system: A498 renal; experiment: NCI tumour cell line growth inhibition, 48 h
MEASUREMENT_LABEL: GI50

INSERT INTO measurements (molecule, reported) VALUES
  ('CCC[CH2][Sn]([CH2]CCC)([O]C(=O)c1cc(OC)c(OC)cc1OC)[O]C(=O)c1cc(OC)c(OC)cc1OC', '1.48 µM'),
  ('O=C1c2ccccc2-c2n[nH]c3cccc1c23', '4.95 µM'),
  ('CCN(C(=O)CCl)C(C)(C)C(SSSC(c1ccc(Cl)cc1)C(C)(C)N(CC)C(=O)CCl)c1ccc(Cl)cc1 (stereo unspecified)', '1.9 µM'),
  ('C/C(=N\NC(=O)c1ccccc1O)c1cccc(/C(C)=N/NC(=O)c2ccccc2O)n1', '2.42 µM'),
  ('Cc1cc2c3ccccc3ccc2[n+]2ccccc12', '5.43 µM'),
  ('C[C@]12CCC3c4ccc(O)cc4CCC3C1Cc1ccc(O)cc12 (stereo partly specified)', '6.18 µM');

###

tested on: HOP-62 NSCLC; assay: NCI tumour cell line growth inhibition, 48 h; in the data active means GI50 below about 0.43 µM; inactive means the rest
Possible outcomes: active, inactive

INSERT INTO results (molecule, class) VALUES
  ('O=c1oc2ccc(Cl)cc2c(=O)n1-c1cc(C(F)(F)F)cc(C(F)(F)F)c1', 'active'),
  ('N#CSCc1c(Cl)cccc1Cl', 'inactive'),
  ('O=C(OCC1OC(OC(=O)c2cc(O)c(O)c(OC(=O)c3cc(O)c(O)c(O)c3)c2)C(OC(=O)c2cc(O)c(O)c(OC(=O)c3cc(O)c(O)c(O)c3)c2)C(OC(=O)c2cc(O)c(O)c(OC(=O)c3cc(O)c(O)c(O)c3)c2)C1OC(=O)c1cc(O)c(O)c(OC(=O)c2cc(O)c(O)c(O)c2)c1)c1cc(O)c(O)c(OC(=O)c2cc(O)c(O)c(O)c2)c1 (centres undefined)', 'inactive'),
  ('COc1ccc(-c2cc(-c3cn[nH]c3-c3ccccn3)ccn2)cc1', 'inactive');

###

tested on: K-562 leukemia; assay: NCI tumour cell line growth inhibition, 48 h
MEASUREMENT_LABEL: TGI

INSERT INTO assay_data (compound, measurement_label, reported) VALUES
  ('Cc1ccc(C2(O)CC(c3ccc([N+](=O)[O-])o3)=NN2C(=O)COc2ccccc2Cl)cc1 (stereo not drawn)', 'TGI', '> 100 µM'),
  ('COc1ccc2c(c1)CCCN1Cc3cc(OC)c(OC)cc3CC21 (stereo not drawn)', 'TGI', '> 100 µM'),
  ('CCOC(=O)C(Cc1ccccc1)NC(=O)OC(C)(C)C (stereo not drawn)', 'TGI', '> 100 µM');

###

tested on: NCI-H460 lung
Possible outcomes: T (active), F (inactive)

INSERT INTO measurements (compound, class) VALUES
  ('COc1cc2nc(N3CCCC3)nc(Nc3ccccc3)c2cc1OC', 'F'),
  ('Nc1ccn(C2CC(O)C(CO)O2)c(=O)n1 (stereo unspecified)', 'F'),
  ('Nc1nc(N)c2c(ccc3nccc32)[nH]1', 'F'),
  ('O=C(OCC1OC(OC(=O)c2cc(O)c(O)c(OC(=O)c3cc(O)c(O)c(O)c3)c2)C(OC(=O)c2cc(O)c(O)c(OC(=O)c3cc(O)c(O)c(O)c3)c2)C(OC(=O)c2cc(O)c(O)c(OC(=O)c3cc(O)c(O)c(O)c3)c2)C1OC(=O)c1cc(O)c(O)c(OC(=O)c2cc(O)c(O)c(O)c2)c1)c1cc(O)c(O)c(OC(=O)c2cc(O)c(O)c(O)c2)c1 (stereo unspecified)', 'F'),
  ('O=C(Nc1ccccc1)NS(=O)(=O)c1ccc(N2N=C3c4ccccc4CC3C2c2ccccn2)cc1 (stereo unspecified)', 'F'),
  ('CN1CCN(Cc2ccc(NC(=O)c3nc4ccc5[nH]ncc5c4c4c3CCC4)cc2C(F)(F)F)CC1', 'F'),
  ('CNNC(=N\S(=O)(=O)c1cc(C(=O)Nc2ccc(Cl)cc2)c(Cl)cc1SCc1ccccc1)/N=C/c1ccc([N+](=O)[O-])s1', 'F'),
  ('COc1c(NC(=O)CC(C)=O)[c]([Hg][O]C(C)=O)c(OC)c(Cl)[c]1[Hg][O]C(C)=O', 'F'),
  ('CCOC(=O)Cn1c(C)c(/C=N/NC(=O)c2cc3c(ccc4ccccc43)o2)c2ccccc21', 'T'),
  ('CCN(CC)CCCOc1cc(O)c2c(=O)cc(-c3ccccc3)oc2c1', 'F'),
  ('COc1cc(Cn2ccc3c2-c2oncc2CC3)cc(OC)c1', 'F');
